TEST_DETAILS: PSAC antagonists in infected red cells, primary screen, cell-based, P. falciparum Indochina, OD700, 2 h (AID 1155);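 also: lysis reports solute entry through the parasite surface anion channel PSAC; channel blockers reduce lysis of infected cells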
CONDITION_SET: P. falciparum Indochina infected erythrocytes, osmotic lysis OD700; higher = more signal, called active from +8 up or from −8 down
Decide by z-score: equal to or exceeding 0.4 means True, less means False.

Worked cases, answers included:
COc1ccc(COC(=O)NN=C2C[C@@H](O)[C@@H](O)[C@@H]3[C@@H]4C(=O)N(Cc5ccccc5)C(=O)[C@@H]4CC[C@H]23)cc1 :: True
O=C1CCCC=C1C(CCc1ccccc1)OC(=O)c1ccc(Br)cc1 (stereo unspecified) :: True
CCc1cc2c(nc1CC)CCN(CCC(C)=NO[C@H](C)c1cn([C@H](CO)Cc3ccccc3)nn1)C2 :: True
Cc1ccc(S(=O)(=O)N[C@@H]2COC(=O)[C@@H](C)COC(=O)CC=C[C@H]2C)cc1 :: False

QUERY: Given CC(CCN1CCCc2nc(C)c(C)cc21)=NOC(C)CN1CCCCc2nc(C)c(C)cc21 (stereo unspecified) , state whether its z-score is at least 0.4.
RESULT: False

QUERY: Given CC(=O)OC[C@H]1O[C@H](CC=NO[C@H](C)c2cn([C@H](CO)Cc3ccccc3)nn2)C=C[C@@H]1OC(C)=O , state whether its z-score is at least 0.4.
RESULT: False

QUERY: Given CCOC(=O)[C@H](CC(C)C)NC(=O)CCC1CC(OC(=O)NCc2ccc3c(c2)OCO3)CC2(CCCC(COC(=O)NCc3cccc(C(F)(F)F)c3)O2)O1 (stereo partly specified) , state whether its z-score is at least 0.4.
RESULT: False

QUERY: Given COC(=O)CC=C[C@@H](C)[C@H](OCc1cccc(-c2ccccc2)c1)C1CCCCC1 , state whether its z-score is at least 0.4.
RESULT: True

QUERY: Given CC(CCN1CCc2nc(-c3ccccc3)c(-c3ccccc3)cc2C1)=NOC[C@@H](O)COCc1ccco1 , state whether its z-score is at least 0.4.
RESULT: False

QUERY: Given CC(C)CON=C1C[C@@H](O)[C@@H](O)[C@@H]2[C@@H]3C(=O)N(C[C@@H]4CCCO4)C(=O)[C@@H]3CC[C@@H]12 , state whether its z-score is at least 0.4.
RESULT: False

QUERY: Given Cc1cc2c(nc1C)CCCN2CC(O)CN1CCCc2nc(C)c(C)cc21 , state whether its z-score is at least 0.4.
RESULT: False

====

TEST_DETAILS: binders of probe aHhip on microarray, primary screen, stem cell growth factor project, biochemical, small-molecule microarray, fluorescence 635/667 (AID 1087);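 also: score merges spot fluorescence at 667nm with spot signal to noise ratio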
CONDITION_SET: higher = more signal
composite z-score values for the molecules below.
Output spec: single numeric token, no unit.

Worked cases, composite z-score given:
CCCNC(=O)OC[C@H]1O[C@H](CCON=C(C)C)C=C[C@@H]1Oc1ccc(OC)cc1 :: -0.226
CCCNC(=O)OC[C@H]1O[C@H](CCON=C(C)CCN2CCc3nc(CC)c(CC)cc3C2)C=C[C@@H]1Oc1ccc(OC)cc1 :: 0.5
CC(CCN1CCCc2nc(C)c(C)cc21)=NO[C@@H](C)c1cc(-c2c(C)cc(C)cc2C)no1 :: -0.166
CCOC(=O)NN=C1C[C@@H](O)[C@@H](O)[C@@H]2[C@@H]3C(=O)N(Cc4ccc5c(c4)OCO5)C(=O)[C@@H]3CC[C@H]12 :: -0.0645
CCN1C(=O)[C@H]2[C@H]3[C@H](O)[C@H](O)CC(=NNC(=O)OCc4ccc(OC)cc4)[C@@H]3CC[C@H]2C1=O :: -0.374
COc1cc(O)c(C(=O)C=Cc2ccc3c(c2)OCO3)c(OC)c1 :: 0.0238

QUERY: Consider the molecule shown here: COc1cccc([C@H]2Oc3ccc(OC)cc3C(=NO[C@@H](C)c3cn([C@H](CO)Cc4ccccc4)nn3)[C@@H]2O)c1 What is its recorded composite z-score?
RESULT: -0.134

QUERY: Consider the molecule shown here: CCOC(=O)[C@H](CC(C)C)NC(=O)CCC1CC(OC(=O)NCc2ccc3c(c2)OCO3)CC2(CCCC(COC(=O)NCC(c3ccccc3)c3ccccc3)O2)O1 (some centres undefined) What is its recorded composite z-score?
RESULT: -0.0994

QUERY: Consider the molecule shown here: CO[C@H]1COC(=O)[C@H](C)NC(=O)CC=C[C@@H](C)[C@H](OC)COC(=O)[C@@H](OCc2ccccc2)C=C[C@@H]1C What is its recorded composite z-score?
RESULT: -0.0994

QUERY: Consider the molecule shown here: CO[C@H]1COC(=O)CC=C[C@@H](C)[C@H](OC)COC(=O)CCC[C@@H]1C What is its recorded composite z-score?
RESULT: 0.176

QUERY: Consider the molecule shown here: CCOC(=O)[C@H](CC(C)C)NC(=O)CCC1CC(OC(=O)NCc2cccc3ccccc23)CC2(CCCC(COC(=O)NCCc3ccc(Cl)cc3)O2)O1 (some centres undefined) What is its recorded composite z-score?
RESULT: -0.0994

QUERY: Consider the molecule shown here: CC(C)CON=C1C[C@@H](O)[C@@H](O)[C@@H]2[C@@H]3C(=O)N(c4ccc(F)cc4F)C(=O)[C@@H]3CC[C@H]12 What is its recorded composite z-score?
RESULT: 0.111

QUERY: Consider the molecule shown here: CCOC(=O)[C@H](Cc1ccccc1)NC(=O)CCC1CC(OC(=O)NCCc2ccc(F)cc2)CC2(CCCC(COC(=O)NCCCN3CCCC3=O)O2)O1 (some centres undefined) What is its recorded composite z-score?
RESULT: -0.0994
